# targetUnderTest: PLK1 (Homo sapiens)
# Sequence (P53350 whole entry): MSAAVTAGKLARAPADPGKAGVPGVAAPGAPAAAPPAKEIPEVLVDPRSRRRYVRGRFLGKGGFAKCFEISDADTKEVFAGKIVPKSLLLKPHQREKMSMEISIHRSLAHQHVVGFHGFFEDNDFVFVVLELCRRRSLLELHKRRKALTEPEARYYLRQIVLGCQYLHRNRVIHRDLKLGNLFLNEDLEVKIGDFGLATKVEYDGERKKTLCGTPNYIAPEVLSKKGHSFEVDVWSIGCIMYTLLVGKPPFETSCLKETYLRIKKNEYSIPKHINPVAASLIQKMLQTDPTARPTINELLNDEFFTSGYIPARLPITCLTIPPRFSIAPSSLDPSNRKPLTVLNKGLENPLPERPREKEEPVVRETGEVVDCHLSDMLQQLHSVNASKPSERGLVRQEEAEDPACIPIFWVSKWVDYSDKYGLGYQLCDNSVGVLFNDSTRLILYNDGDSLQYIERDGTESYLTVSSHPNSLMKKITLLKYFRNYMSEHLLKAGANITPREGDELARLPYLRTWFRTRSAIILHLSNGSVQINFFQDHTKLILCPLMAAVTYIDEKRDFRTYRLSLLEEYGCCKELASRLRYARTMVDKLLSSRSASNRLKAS
# assayExplanation: PLK TR-FRET peptide assay, PLK1
# Assay type: biochemical
# assaySetup: GST-PLK1, 60 min reaction
pIC50: −log10 of the molar value.
Items are presented alongside their recorded pIC50.

These solved cases illustrate the format of a correct answer.
CC[C@@H]1C(=O)N(C)c2cnc(-n3ncnc3-c3cccc4ncccc34)nc2N1C1CCC1 [Example 215]
5.00 to 6.00
CCC12CCCCN1c1nc(-n3ccnc3-c3ccccc3)ncc1N(C)C2=O (racemic) [Example 238]
5.00 to 6.00
CC[C@@H]1C(=O)N(C)c2cnc(-n3ccnc3N3CCCC3)nc2N1C1CCCC1 [Example 86]
4.30 to 5.00

Now turn to the next compound.
Reported pIC50, compound CN1C(=O)[C@@H](CC(F)(F)F)N(CCC(F)(F)F)c2nc(-n3ccnc3)ncc21 [Example 301] : ____
4.30 to 5.00

---

# targetUnderTest: UniProt Q9NYY3
# assayExplanation: PLK TR-FRET peptide assay, PLK2
# Assay type: biochemical
# assaySetup: PLK TR-FRET peptide assay, GST-PLK2, 60 min reaction; read-out: Plk2 IC50
pIC50: −log10 of the molar value.
property: pIC50

These solved cases illustrate the format of a correct answer.
[2H]C([2H])([2H])N1C(=O)C(C([2H])([2H])C([2H])([2H])[2H])N(C([2H])(C([2H])([2H])[2H])C([2H])([2H])[2H])c2nc(-n3ccnc3-c3nccs3)ncc21 (stereo not shown)
> 6.00
CC[C@@H]1C(=O)N(C)c2cnc(-c3cccc4cccnc34)nc2N1C1CCCC1
4.30 to 5.00
CCC12CCCCCN1c1nc(-n3ncnc3-c3cccc4ncccc34)ncc1N(C)C2=O (racemic)
4.30 to 5.00

Now turn to the next compound.
Reported pIC50, compound `CC[C@@H]1C(=O)N(C)c2cnc(-c3ccncc3CN)nc2N1C1CCCC1` : ____
4.30 to 5.00

---

# targetUnderTest: PLK1 (Homo sapiens)
# assayExplanation: PLK TR-FRET peptide assay, PLK1
# Format: biochemical
# assaySetup: GST-PLK1, 60 min reaction
Items are presented alongside their recorded IC50.

These solved cases illustrate the format of a correct answer.
CC[C@@H]1C(=O)N(C)c2cnc(-n3ccnc3-c3ccc(F)c(F)c3)nc2N1C1COC1
> 50 µM
[2H]C([2H])([2H])N1C(=O)[C@@H](C([2H])([2H])C([2H])([2H])[2H])N(C([2H])(C([2H])([2H])[2H])C([2H])([2H])[2H])c2nc(-n3ccnc3-c3cc(F)cc(F)c3)ncc21
< 1 µM
CC[C@@H]1C(=O)N(C)c2cnc(-n3ccnc3-c3ccc(F)cc3F)nc2N1C1CCOC1 (stereo partly shown)
1 to 10 µM

Now turn to the next compound.
So what IC50 did CCC12CCCCCN1c1nc(-n3nccc3-c3ccccc3)ncc1N(C)C2=O (stereo not shown) get with PLK1 (Homo sapiens)?
10 to 50 µM

---

# targetUnderTest: PLK2 (Homo sapiens, UniProt Q9NYY3)
# Sequence (Q9NYY3 whole entry): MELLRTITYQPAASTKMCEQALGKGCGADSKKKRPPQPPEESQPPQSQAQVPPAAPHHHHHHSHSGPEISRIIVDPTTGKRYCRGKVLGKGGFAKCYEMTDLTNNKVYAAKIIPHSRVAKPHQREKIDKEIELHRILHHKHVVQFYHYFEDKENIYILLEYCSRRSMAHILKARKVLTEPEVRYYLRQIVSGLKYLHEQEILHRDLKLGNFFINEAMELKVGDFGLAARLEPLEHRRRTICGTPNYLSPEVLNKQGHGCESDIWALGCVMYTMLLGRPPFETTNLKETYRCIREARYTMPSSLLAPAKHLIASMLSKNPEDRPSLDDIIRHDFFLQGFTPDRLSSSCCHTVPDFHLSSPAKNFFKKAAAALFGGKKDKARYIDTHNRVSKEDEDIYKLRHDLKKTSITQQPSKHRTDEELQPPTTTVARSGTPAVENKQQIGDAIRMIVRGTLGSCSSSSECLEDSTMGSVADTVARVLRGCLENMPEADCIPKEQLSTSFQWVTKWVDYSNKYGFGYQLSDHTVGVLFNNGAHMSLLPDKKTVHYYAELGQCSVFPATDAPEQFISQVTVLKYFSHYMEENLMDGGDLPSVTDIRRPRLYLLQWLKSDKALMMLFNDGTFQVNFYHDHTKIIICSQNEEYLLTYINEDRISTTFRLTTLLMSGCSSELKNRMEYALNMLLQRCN
# assayExplanation: PLK TR-FRET peptide assay, PLK2
# Format: biochemical
# assaySetup: PLK TR-FRET peptide assay, GST-PLK2, 60 min reaction; read-out: Plk2 IC50
pIC50: −log10 of the molar value.
property: pIC50

These solved cases illustrate the format of a correct answer.
CC[C@@H]1C(=O)N(C)c2cnc(-n3ccnc3-c3nccs3)nc2N1C1CCCC1 [Example 74]
> 6.00
CC[C@@H]1C(=O)N(C)c2cnc(-n3ccnc3-c3ccc(F)c(Cl)c3)nc2N1C1CCOC1 (stereo partly shown) [Example 232]
> 6.00
CCOC(=O)c1cnn(-c2ncc3c(n2)N(C2CCCC2)[C@H](CC)C(=O)N3)c1 [Example 30]
< 4.30
CC[C@@H]1C(=O)N(C)c2cnc(-c3c[nH]nc3-c3ccc(C(F)(F)F)cc3)nc2N1C(C)C [Example 167]
> 6.00
CN1C(=O)[C@H]2CCCCN2c2nc(-n3ccnc3)ncc21 [Example 24]
< 4.30

So what pIC50 did CC[C@@]12CCCN1c1nc(-n3ccnc3-c3cccc(Cl)c3)ncc1N(C)C2=O [Example 236] get with PLK2 (Homo sapiens, UniProt Q9NYY3)?
> 6.00

Moving on to the next compound: CC[C@@H]1C(=O)N(C)c2cnc(-c3ccncc3-c3ccccc3)nc2N1C1CCC1 [Example 96]
> 6.00

Moving on to the next compound: CC[C@@H]1C(=O)Nc2cnc(-n3cccn3)nc2N1C1CCCC1 [Example 29]
< 4.30

Moving on to the next compound: CC[C@@H]1C(=O)N(C)c2cnc(-c3ccncc3NC(=O)c3ccccc3)nc2N1C1CCCC1 [Example 102]
> 6.00

Moving on to the next compound: [2H]C([2H])([2H])N1C(=O)C(C([2H])([2H])C([2H])([2H])[2H])N(C([2H])(C([2H])([2H])[2H])C([2H])([2H])[2H])c2nc(-c3c[nH]nc3-c3ccccc3)ncc21 (stereo not shown) [Example 165]
> 6.00
